Values compiled from the supplement of paper PMC7411054.

- Test system: HepG2-TUBA1B-RELA
- experiment notes: lowest phenotypically active concentration; higher = less potent
- applied conditions: treatment time: 24 h
Structures can show the parent of a compound that is named as a salt.
attribute measured: lowest phenotypically active concentration (µM)
Expressed in µM, but write only the number.

compound="CC(CN1c2ccccc2Sc2ccccc21)N(C)C (configuration not stated)" unit_abbrev=µM assay_value=9
compound=Nc1ccc(-c2cccc3c(=O)cc(N4CCOCC4)oc23)cc1 unit_abbrev=µM assay_value=9
compound="O=C1NC(=O)[C@@H](c2cn3c4c(cccc24)CCC3)[C@@H]1c1c[nH]c2ccccc12 [tivantinib]" unit_abbrev=µM assay_value=1
compound=O=C(Nc1ccc(-c2ccnc(Nc3ccc(N4CCOCC4)cc3)n2)cc1)[C@@H]1CCCN1 unit_abbrev=µM assay_value=3

Query: lowest phenotypically active concentration; subject: CCC(=O)N1CCOc2c(cc(-c3ccc(OC)c(OC)c3)cc2OC[C@H]2CCCN(C)C2)C1
9

Query: lowest phenotypically active concentration; subject: CC(=O)O[C@@H]1C[C@H]2C(C)(C)C(=O)C=C[C@]2(C)[C@H]2CC[C@@]3(C)[C@H](c4ccoc4)OC(=O)[C@H]4O[C@]43[C@@]21C
9

Query: lowest phenotypically active concentration; subject: Nc1nccc2c1ncn2[C@@H]1C=C(CO)[C@@H](O)[C@H]1O [3-Deazaneplanocin A hydrochloride]
1

Query: lowest phenotypically active concentration; subject: COc1ccc2c(Oc3ccc(NC(=O)c4c(C)n(CC(C)(C)O)n(-c5ccccc5)c4=O)nc3)ccnc2c1
9

###

- System: HepG2-TUBA1B-RELA
- experiment notes: lowest phenotypically active concentration; higher = less potent
- applied conditions: treatment time: 24 h
Structures can show the parent of a compound that is named as a salt.
Parameter lowest phenotypically active concentration: see the listing below.
Expressed in µM, but write only the number.

Example cases with answers are listed next.
compound="COc1cc2c(cc1-c1c(C)noc1C)ncc1[nH]c(=O)n([C@H](C)c3ccccn3)c12 [I-BET 151 dihydrochloride]" assay_value=3
compound=O=c1cc(-c2cccc3c2Sc2ccccc2S3)oc(N2CCOCC2)c1 assay_value=9
compound=COc1cc(Br)c(Nc2nc(-c3c(C)nc4ncccn34)cs2)c(Br)c1 assay_value=1

Consider now this further compound.
Query: lowest phenotypically active concentration; subject: CN1[C@@H]2CC[C@H]1C[C@@H](OC(c1ccccc1)c1ccccc1)C2
9

###

Parameter lowest phenotypically active concentration: see the listing below.
- Test system: HepG2-ACTB-RAB5A
- experiment notes: lowest phenotypically active concentration; higher = less potent
- applied conditions: treatment time: 24 h
Counter-ions that a name gives are not always drawn.
Expressed in µM, but write only the number.

Example cases with answers are listed next.
compound=O=C(Nc1cccnc1)N1CCC(Cc2cccc(Oc3ccc(C(F)(F)F)cn3)c2)CC1 assay_value=9
compound="Oc1cccc(Nc2ccnc3cc(-c4cccc(CN5CCOCC5)c4)sc23)c1 [LCB 03-0110 dihydrochloride]" assay_value=1

Reported lowest phenotypically active concentration for HepG2-ACTB-RAB5A, given CCOC(=O)CCNc1cc(N2CCc3ccccc3CC2)nc(-c2ccccn2)n1 ?
3

Reported lowest phenotypically active concentration for HepG2-ACTB-RAB5A, given C[C@H]1[C@H]2CC[C@H]3[C@@H]4CC=C5C[C@@H](N(C)C)CC[C@]5(C)[C@H]4CC[C@]23CN1C [Conessine] ?
9

Reported lowest phenotypically active concentration for HepG2-ACTB-RAB5A, given O=C(CCCc1ccc(-c2ccccc2F)cc1)Nc1ccc(O)cc1 ?
3

Reported lowest phenotypically active concentration for HepG2-ACTB-RAB5A, given O=C(Nc1ccncc1)c1cc([N+](=O)[O-])ccc1Cl ?
9

Reported lowest phenotypically active concentration for HepG2-ACTB-RAB5A, given O=S(=O)(c1cccc2c(O)nccc12)N1CCCNCC1 [HA 1100 hydrochloride] ?
9

Reported lowest phenotypically active concentration for HepG2-ACTB-RAB5A, given C=C1C(=O)O[C@@H]2C=C(C)CCC=C(C)CC[C@@H]12 [Costunolide] ?
9

Reported lowest phenotypically active concentration for HepG2-ACTB-RAB5A, given CN1CCC(=C2c3ccccc3CC(=O)c3sccc32)CC1 [ketotifen] ?
9

Reported lowest phenotypically active concentration for HepG2-ACTB-RAB5A, given COc1cc2c(NC3CCN(C(C)C)CC3)nc(C3CCCCC3)nc2cc1OCCCN1CCCC1 ?
1

###

Parameter phenotypically active: see the listing below.
- Test system: HepG2-TP53BP1-CLTA
- experiment notes: phenotypically active (imaging signature differs from DMSO and reproducible) at any of 0.3-9 uM (binary (1 = active, 0 = inactive)); higher = active
- applied conditions: treatment time: 24 h
Structures can show the parent of a compound that is named as a salt.
# answer = number (no unit)

Example cases with answers are listed next.
compound="O=c1cc(-c2ccccc2)oc2c(O)c(O)ccc12 [7,8-Dihydroxyflavone]" assay_value=0
compound="O=C1CCC[C@@H]2[C@H]3CCC[N+]4([O-])CCC[C@@H](CN12)[C@@H]34 (some centres undefined)" assay_value=0
compound=O=C1c2c(O)ccc(O)c2C(=O)c2c(NCCNCCO)ccc(NCCNCCO)c21 assay_value=1

Reported phenotypically active for HepG2-TP53BP1-CLTA, given NS(=O)(=O)c1cc2c(cc1Cl)N=CNS2(=O)=O [chlorothiazide] ?
0

Reported phenotypically active for HepG2-TP53BP1-CLTA, given Nc1nc(OCC2CCCCC2)c2nc[nH]c2n1 ?
0

Reported phenotypically active for HepG2-TP53BP1-CLTA, given COc1ccc(C(=O)C2CCN(CC(=O)N(Cc3nc4c(c(=O)[nH]3)COCC4)CC3CC3)CC2)cc1 ?
0

Reported phenotypically active for HepG2-TP53BP1-CLTA, given O=C1c2c(O)cccc2Cc2cccc(O)c21 ?
0

Reported phenotypically active for HepG2-TP53BP1-CLTA, given O=C(c1ccccc1)c1ccc2n1CCC2C(=O)O (centres undefined) ?
0

Reported phenotypically active for HepG2-TP53BP1-CLTA, given CC[C@H](CO)Nc1nc(NCc2ccc(-c3ccccn3)cc2)c2ncn(C(C)C)c2n1 ?
1

Reported phenotypically active for HepG2-TP53BP1-CLTA, given O=NN(CCCl)C(=O)NCCCl ?
0

Reported phenotypically active for HepG2-TP53BP1-CLTA, given NC(=O)c1ccc(I)c([N+](=O)[O-])c1 ?
0

Reported phenotypically active for HepG2-TP53BP1-CLTA, given O=C(Nc1cccnc1)N1CCC(Cc2cccc(Oc3ccc(C(F)(F)F)cn3)c2)CC1 ?
1

Reported phenotypically active for HepG2-TP53BP1-CLTA, given O=C1Cc2c([nH]c3ccc(Br)cc23)-c2ccccc2N1 ?
1

Reported phenotypically active for HepG2-TP53BP1-CLTA, given CCCC(CCC)C(=O)O [Valproic acid, sodium salt] ?
0

###

- Tested on: HepG2-TP53BP1-CLTA
- experiment notes: lowest phenotypically active concentration; higher = less potent
- applied conditions: treatment time: 24 h
attribute measured: lowest phenotypically active concentration

sample_smiles=COc1ccc(-c2ccc3ncc4c(c3c2)n(-c2ccc(N3CCNCC3)c(C(F)(F)F)c2)c(=O)n4C)cn1 assay_value="≤ 0.3 µM"
sample_smiles=CC[C@H](C)[C@H](NC(=O)OCc1ccccc1)C(=O)N[C@@H](CCC(=O)OC(C)(C)C)C(=O)N[C@@H](C)C(=O)N[C@H](C=O)CC(C)C assay_value="≤ 0.3 µM"

Query: lowest phenotypically active concentration; subject: Cc1c[nH]c2nccc(Oc3c(F)cc(Nc4cc(Cl)nc(N)n4)cc3F)c12
≤ 0.3 µM

###

- System: WPMY1-TP53BP1-CLTA
- experiment notes: phenotypically active (imaging signature differs from DMSO and reproducible) at any of 0.3-9 uM (binary (1 = active, 0 = inactive)); higher = active
- applied conditions: treatment time: 24 h
Parameter phenotypically active: see the listing below.
# answer = number (no unit)

compound="C1CCN2C[C@@H]3C[C@@H](CN4CCCC[C@@H]34)[C@H]2C1 [Sparteine (-)]" assay_value=0
compound=CCC1=C[C@@H]2CN(C1)Cc1c([nH]c3ccccc13)[C@@](C(=O)OC)(c1cc3c(cc1OC)N(C)[C@H]1[C@@](O)(C(=O)OC)[C@H](OC(C)=O)[C@]4(CC)C=CCN5CC[C@]31[C@@H]54)C2 assay_value=1
compound=Cc1cc2c(s1)Nc1ccccc1N=C2N1CCN(C)CC1 assay_value=0

Consider now this further compound.
Query: phenotypically active; subject: COc1ccc([C@@H]2CC(=O)c3c(O)cc(O)cc3O2)cc1O
0

###

Parameter phenotypically active: see the listing below.
- System: WPMY1-CANX-COX4
- experiment notes: phenotypically active (imaging signature differs from DMSO and reproducible) at any of 0.3-9 uM (binary (1 = active, 0 = inactive)); higher = active
- applied conditions: treatment time: 24 h
# answer = number (no unit)

Example cases with answers are listed next.
compound=O=C(O)c1cc(/N=N/c2ccc(O)c(C(=O)O)c2)ccc1O attribute_measured="phenotypically active" assay_value=0
compound=O=[N+]([O-])c1cc(Cl)ccc1S(=O)(=O)c1ccccc1 attribute_measured="phenotypically active" assay_value=0
compound="CC[N+](CC)(CC)CCOc1cccc(OCC[N+](CC)(CC)CC)c1OCC[N+](CC)(CC)CC [gallamine-triethiodide]" attribute_measured="phenotypically active" assay_value=0

Reported phenotypically active for WPMY1-CANX-COX4, given Cc1cc(C(C)Nc2ccccc2)c2nc(N3CCOCC3)cc(=O)n2c1 (configuration not stated) ?
1

Reported phenotypically active for WPMY1-CANX-COX4, given CCCC(=O)O[C@]1(C(=O)COC(C)=O)CC[C@H]2[C@@H]3C[C@H](F)C4=CC(=O)C=C[C@]4(C)[C@@]3(F)[C@@H](O)C[C@@]21C [difluprednate] ?
0
